The entries below come with measured melting point values attached.

| Compound | melting point |
| --- | --- |
| CC(C(=O)O)c1c(-c2ccc(C(=N)N)cc2)[nH]c2cc(C(=N)N)ccc12.Cl.Cl (centres unmarked) | > 260 °C |
| Cl.Cl.N=C(N)c1ccc(-c2[nH]c3cc(C(=N)N)ccc3c2CC(=O)OCCOCc2ccccc2)cc1 | > 250 °C |
| CCCCOC(=O)Cc1c(-c2ccc(C(=N)N)cc2)[nH]c2cc(C(=N)N)ccc12.Cl.Cl | > 270 °C |
| CCCCS(=O)(=O)CCOC(=O)Cc1c(-c2ccc(C(=N)N)cc2)[nH]c2cc(C(=N)N)ccc12.Cl.Cl | > 250 °C |
| COC(=O)C(CO)NCCc1c(-c2ccc(C(=N)N)cc2)[nH]c2cc(C(=N)N)ccc12.Cl.Cl (centres unmarked) | > 250 °C |
| Cl.Cl.N=C(N)c1ccc(-c2[nH]c3cc(C(=N)N)ccc3c2CC(=O)OCC2CCCCO2)cc1 (centres unmarked) | > 250 °C |
| Cl.Cl.N=C(N)c1ccc(-c2[nH]c3cc(C(=N)N)ccc3c2CC(=O)OCCO)cc1 | > 250 °C |
| C=CCOC(=O)Cc1c(-c2ccc(C(=N)N)cc2)[nH]c2cc(C(=N)N)ccc12.Cl.Cl | > 250 °C |
